// note: pIC50 values for Leukocyte tyrosine kinase receptor (Homo sapiens) were reported in different studies
pIC50: −log10 of the molar value.
EXPERIMENTAL_READOUT: pIC50

{"columns": ["SMILES_REPR", "MEASURED_ON", "pIC50"],
 "data": [
  ["C=CC(=O)Nc1nc2cnc3[nH]ccc3c2n1C", "Leukocyte tyrosine kinase receptor (Homo sapiens)", 5.25]
]}

A: C[C@H]1Oc2cc(cnc2N)-c2c(nn(C)c2C#N)CN(C)C(=O)c2ccc(F)cc21
B: Cc1n[nH]c2cc(Nc3nc(NC4CC4)c4occc4n3)ccc12
C: NS(=O)(=O)OCCn1cnc2c(Nc3ccc(F)cc3)nc(NCc3ccc(C4CCCCC4)cc3)nc21
query: Order by pIC50, ascending. Rank them, then answer with their labels in that order.
result: C, B, A
